B1: LINE1-full (parent)
chain: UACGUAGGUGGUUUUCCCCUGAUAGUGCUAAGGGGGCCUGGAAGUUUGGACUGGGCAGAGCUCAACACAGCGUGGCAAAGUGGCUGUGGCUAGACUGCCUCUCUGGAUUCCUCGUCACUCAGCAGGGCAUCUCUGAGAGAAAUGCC

- Variants of: B1
- PROCEDURE SUMMARY: self-cleavage, relative activity (ratio to wild type); higher = more cleavage; in vitro, sequencing; the parent is a self-cleaving ribozyme
RECORDED ENDPOINT: self-cleavage

// for each variant below, give its self-cleavage
1. UACGUAGGUGGUUUUCCCCUGAUAGCGCUAAGGGGGCCUGGAAGUUUGGACUGGGCAGAGCUCAACACAGCGUGGCAAAGUGGCUGUGGCUAGACUGCCUCUCUGGAUUCCUCGUCACUCUGCAGGGCAUCUCUGAGAGAAAUGCC
2. UACGUAGGUGGUUUUCCCCUGAUAGUGCUAAGGGGGCCUGGAAGUUUGGACUGGGCAGGGCUCAACACAGCGUGGCAAGGUGGCUGUGGCUAGACUGCCUCUCUGGAUUCCUCGUCACUCAGCAGGGCAUCUCUGAGAGAAAUGCC
3. UACGUAGGUGGUUUUCCCCUGAUAGUGCUAAGGGGGCCUGGAAGUUUGGACUGGGCAGAGCUCAAUACAGCGUGGCAAAGUGGCUGUGGCUAGACUGCCUCUCUGGAUUCCUCGUCACUCAGCAGGGCGUCUCUGAGAGAAAUGCC
4. UACGUAGGUGGUUUUCCCCUGAUAGUGCUAAGGGGGCCUGGAAGUUUGGACUGGGCAGAGCUCAACACAGCGCGGCAAAGUGGCUGUGGCUAGACUGCCUCUCUGGAUUCCUCGUCACUCAGCAGGGCAUCUCUGAGAGAAACGCC

[out]
1: 1.43; 2: 0.07; 3: 0.01; 4: 2.13

Data origin: the RNAGym collection of RNA variant scans (doi:10.7554/elife.90254)
